Measurement Notes: Inhibition of Helicobacter pylori beta-carbonic anhydrase preincubated for 15 mins by stopped flow CO2 hydration assay
Category | rule: reported Ki within range, see lower bin (below 600 µM), middle bin (600 µM to below 700 µM), upper bin (700 µM or more)

{"columns": ["Molecule", "Label Class"],
 "data": [
  ["O=NO [SODIUM NITRITE]", "middle bin"],
  ["N=C=[Se] [SODIUM ISOSELENOCYANATE]", "upper bin"],
  ["NS(N)(=O)=O [SULFAMIDE]", "lower bin"],
  ["O=C([O-])[O-].[Na+].[Na+] [SODIUM CARBONATE]", "lower bin"],
  ["O=P(O)(O)OP(=O)(O)O [SODIUM PYROPHOSPHATE]", "upper bin"],
  ["S [SODIUM HYDROSULFIDE]", "lower bin"],
  ["O=[N+]([O-])[O-].[Na+] [SODIUM NITRATE]", "upper bin"],
  ["O=S(=O)(O)OOS(=O)(=O)O [SODIUM PERSULFATE]", "upper bin"],
  ["[I-].[Na+] [SODIUM IODIDE]", "middle bin"],
  ["S=C(S)S [SODIUM CARBONOTRITHIOATE]", "lower bin"],
  ["O=[Se](=O)(O)O [SODIUM SELENATE]", "middle bin"],
  ["O=S(=O)([O-])[O-].[Na+].[Na+] [SODIUM SULFATE ANHYDROUS]", "lower bin"],
  ["[O-][Cl+3]([O-])([O-])O [SODIUM PERCHLORATE]", "upper bin"],
  ["CCN(CC)C(=S)S [DITIOCARB SODIUM]", "lower bin"],
  ["[Cl-].[Na+] [SODIUM CHLORIDE]", "lower bin"],
  ["NS(=O)(=O)O [SULFAMATE]", "lower bin"],
  ["[Br-].[Na+] [SODIUM BROMIDE]", "lower bin"],
  ["O=[Te](=O)(O)O [SODIUM TELLURATE]", "lower bin"],
  ["O=S([O-])O.[Na+] [SODIUM BISULFITE]", "middle bin"],
  ["OB(O)c1ccccc1 [PHENYLBORONIC ACID]", "lower bin"],
  ["[F-].[Na+] [SODIUM FLUORIDE]", "middle bin"],
  ["F[B-](F)(F)F.[Na+] [SODIUM TETRAFLUOROBORATE]", "upper bin"],
  ["[N-]=[N+]=[N-] [SODIUM AZIDE]", "upper bin"]
]}
